// read-out log10 IC50, gathered for Protein kinase C theta type (Homo sapiens, UniProt Q04759) from published studies
Please interpret these as log10 of IC50 where IC50 is in nM.

Some compounds with known log10 IC50 results, for comparison:
Cc1c(Nc2c(C#N)cnc3sc(C4=CCN(C(=O)OC(C)(C)C)CC4)cc23)ccc2[nH]ccc12 ... 2.00
CCc1ncc(C#N)c(Nc2ccc3[nH]ccc3c2C)c1-c1ccc(OC)c(OC)c1 ... 2.28
Cc1c(Nc2c(C#N)cnc3sc(-c4ccccc4CN(C)C)cc23)ccc2[nH]ccc12 ... 1.97
Cc1[nH]ncc1CCCNc1ccc2ncc(-c3cnn(C)c3)n2n1 ... 3.86
Cc1ncc(C#N)c(Nc2ccc3[nH]ccc3c2C)c1-c1ccc(OCCNCCCO)cc1 ... 1.60
COc1cc(Nc2ncc(C#N)c(NC3CC(C)(C)N(C)C(C)(C)C3)n2)cc(-n2nnnc2C)c1 ... -0.21

Proceed to the following item.
Requested read-out log10 IC50, target or system Protein kinase C theta type (Homo sapiens, UniProt Q04759), entry CN1C(C)(C)CC(Nc2nc(Nc3ccc(-n4cccc4)c(C#N)c3)ncc2Cl)CC1(C)C
0.59

* * *

// read-out log10(IC50), gathered for Protein kinase C theta type (Homo sapiens, UniProt Q04759) from published studies
Please interpret these as log10 of IC50 where IC50 is in nM.

N#Cc1cnc2sc(-c3cccc(CNCC4CCCO4)c3)cc2c1Nc1ccc2[nH]ccc2c1 (centres unmarked) ... 2.18
Cc1ncc(C#N)c(Nc2ccc3[nH]ccc3c2C)c1-c1ccc(OCCNCc2ccncc2)cc1 ... 1.61
N#Cc1cnc2sc(C(=O)NCCO)cc2c1Nc1ccc2[nH]ccc2c1 ... 2.94
CN(C)c1cccc(-c2cc3c(Nc4ccc5[nH]ccc5c4)c(C#N)cnc3s2)c1 ... 2.68
CN1C(=O)C(F)(F)Oc2cc(Nc3ncc(F)c(NC4CC(C)(C)N(C)C(C)(C)C4)n3)ccc21 ... 0.39

For each entry beneath this line, provide reported log10(IC50).
1. O=[N+]([O-])c1cnc(SCc2ccccc2Cl)nc1NCC1CCNCC1
2. COc1ccc(-c2c(C)ncc(C#N)c2Nc2ccc3[nH]c(C)cc3c2)cc1OC
3. Cc1c(Nc2c(C#N)cnc3sc(-c4cccc(OC[C@H](O)CO)c4)cc23)ccc2[nH]ccc12

1. 0.90
2. 2.75
3. 1.23

* * *

// read-out IC50, gathered for Protein kinase C theta type (Homo sapiens) from published studies
Entries whose IC50 is below 50 nM take true (1); entries at or above 50 nM take false (0).

These solved cases illustrate the format of a correct answer.
COc1cccc(-c2cncc(C#N)c2Nc2cccc(F)c2)c1 ... false (0)
Cc1ncc(C#N)c(Nc2ccc3[nH]ccc3c2C)c1-c1ccc(OCCN2CCC(CCO)CC2)cc1 ... false (0)
CN1C(C)(C)CC(Nc2nc(Nc3ccc(N4CCOCC4)c(C#N)c3)ncc2F)CC1(C)C ... true (1)
N#Cc1cnc2sc(-c3ccccc3)cc2c1Nc1cnc2[nH]ccc2c1Cl ... true (1)

Quick check: does Cc1c(Nc2c(C#N)cnc3sc(-c4ccc(OCCN(C)C)cc4)cc23)ccc2[nH]ccc12 have IC50 under 50 nM?
true (1)

* * *

// read-out IC50, gathered for Protein kinase C theta type (Homo sapiens, UniProt Q04759) from published studies
One number for each entry, in nM.

Some compounds with known IC50 results, for comparison:
CN1C(C)(C)CC(Nc2nc(Nc3ccc(C(F)(F)F)c(N4CCN(S(C)(=O)=O)CC4)c3)ncc2F)CC1(C)C ... 5.99
Cc1ncc(C#N)c(Nc2ccc3[nH]ccc3c2C)c1-c1ccc(OCCCl)cc1 ... 30
Cc1ncc(C#N)c(Nc2ccc3[nH]ccc3c2C)c1-c1ccc(OCCN2CC(C)NCC2C)cc1 (stereo not shown) ... 42
N#Cc1cnc2sc(-c3ccc4ccccc4c3)cc2c1Nc1ccc2[nH]ccc2c1 ... 1380
COc1ccc(CN(C)C)cc1-c1sc2ncc(C#N)c(Nc3ccc4[nH]ccc4c3C)c2c1C ... 243

For each entry beneath this line, provide reported IC50.
1. COc1ccc(C=O)cc1-c1cc2c(Nc3ccc4[nH]ccc4c3)c(C#N)cnc2s1
2. CN(C)Cc1cccc(-c2cc3c(Nc4cccc5[nH]ccc45)c(C#N)cnc3s2)c1
3. Cc1c(Nc2c(C#N)cnc3sc(-c4ccc(C(=O)NCCN(C)C)cc4)c(C)c23)ccc2[nH]ccc12

1. 100
2. 41
3. 116

* * *

pIC50: −log10 of the molar value.
// read-out pIC50, gathered for Protein kinase C theta type (Homo sapiens) from published studies
pIC50 below 7 gives no; pIC50 at or above it gives yes.

API: above_or_equal(metric=pIC50, cutoff=7) for item Cc1ncc(C#N)c(Nc2ccc3[nH]ccc3c2C)c1-c1ccc(OCCN2CCCNCC2)cc1
yes

API: above_or_equal(metric=pIC50, cutoff=7) for item CCCOc1ccccc1-c1cc2c(Nc3ccc4[nH]ccc4c3C)c(C#N)cnc2s1
no

API: above_or_equal(metric=pIC50, cutoff=7) for item Cc1c(Nc2c(C#N)cnc3sc(-c4ccccn4)cc23)ccc2[nH]ccc12
yes

API: above_or_equal(metric=pIC50, cutoff=7) for item N#Cc1cnc2sc(-c3ccccc3)cc2c1Nc1cnc2[nH]ccc2c1
no

API: above_or_equal(metric=pIC50, cutoff=7) for item Cc1ccc2cc(Nc3ncc(F)c(NC4CC(C)(C)N(C)C(C)(C)C4)n3)ccc2n1
yes

* * *

pIC50: −log10 of the molar value.
// read-out pIC50, gathered for Protein kinase C theta type (Homo sapiens, UniProt Q04759) from published studies

O=C(c1cccc(O)c1)c1c[nH]c2nccc(-c3cc(F)cc(F)c3)c12 ... ≥ 5.00
C[C@H](c1ccccc1)n1c(=O)[nH]c2ncc(-c3cccc4ncccc34)nc21 ... 5.30 to 7.00
CN1C(C)(C)CC(Nc2nc(Nc3ccc4c(c3)-n3nnnc3C(C)(C)O4)ncc2F)CC1(C)C ... > 6.60

For each entry beneath this line, provide reported pIC50.
1. O=C(c1ccc(O)cc1)c1c[nH]c2ncc(-c3cccs3)cc12
2. CC(c1cccnc1)n1c(=O)[nH]c2ncc(-c3cccc4ncccc34)nc21 (centres unmarked)

1. ≥ 5.00
2. 5.00 to 5.29

* * *

// read-out IC50, gathered for Protein kinase C theta type (Homo sapiens, UniProt Q04759) from published studies

COc1ccc(Cn2c(=O)[nH]c3ncc(-c4cccc5ncccc45)nc32)cc1 ... > 30 µM

For each entry beneath this line, provide reported IC50.
1. Cc1cccc2nc(N3CCN(C)CC3)nc(C3=C(c4c[nH]c5sccc45)C(=O)NC3=O)c12
2. Cc1c(Nc2c(C#N)cnc3sc(-c4cccc(NCCN(C)C)c4)cc23)ccc2[nH]ccc12
3. Cc1ccc2nc(N3CCN(C)CC3)nc(C3=C(c4c[nH]c5sccc45)C(=O)NC3=O)c2c1
4. COc1cc(Nc2ncc(C#N)c(NC3CC(C)(C)N(C)C(C)(C)C3)n2)cc(OC)c1
5. CN1CCN(c2ccc(Nc3ncc(C#N)c(NC4CC(C)(C)N(C)C(C)(C)C4)n3)cc2C(F)(F)F)CC1
6. CN(C)Cc1ccc(-c2cc3c(Nc4ccc5[nH]ccc5c4)c(C#N)cnc3s2)nc1

1. < 0.1 µM
2. 0.01 µM
3. < 0.1 µM
4. 0.0041 µM
5. 0.0117 µM
6. 0.18 µM

* * *

// read-out IC50, gathered for Protein kinase C theta type (Homo sapiens) from published studies
Give bare numbers, in nM.

CN(C)C(=O)c1cccc(-c2cc3c(Nc4ccc5[nH]ccc5c4)c(C#N)cnc3s2)c1 ... 420
CN1C(C)(C)CC(Nc2nc(Nc3ccc(Br)c(Cl)c3)ncc2F)CC1(C)C ... 10.2
CN1CCN(Cc2cccc(-c3cc4c(Nc5cccc6[nH]ccc56)c(C#N)cnc4s3)c2)CC1 ... 22
CN1C(C)(C)CC(Nc2nc(Nc3ccc(N4CCN(S(C)(=O)=O)CC4)c(Cl)c3)ncc2C#N)CC1(C)C ... 12.6
CN1C(C)(C)CC(Nc2nc(Nc3ccc(Cl)c(C#N)c3)ncc2Cl)CC1(C)C ... 2.56

For each entry beneath this line, provide reported IC50.
1. N[C@H]1CC[C@H](CNc2nc(NCc3ccccc3OC(F)(F)F)ccc2[N+](=O)[O-])CC1
2. Cc1cc(C=O)cc(-c2cc3c(Nc4ccc5[nH]ccc5c4C)c(C#N)cnc3s2)c1

1. 1000
2. 98

* * *

// read-out pIC50, gathered for Protein kinase C theta type (Homo sapiens) from published studies
pIC50: −log10 of the molar value.

Some compounds with known pIC50 results, for comparison:
O=C1NC(=O)C(c2c[nH]c3ccsc23)=C1c1nc(N2CCN3CCC[C@H]3C2)nc2ccccc12 ... > 7.00
CN1CCN(c2nc3c(c(C4=C(c5c[nH]c6sccc56)C(=O)NC4=O)n2)CCC3)CC1 ... 6.30 to 7.00

For each entry beneath this line, provide reported pIC50.
1. CC1Oc2ccc(Nc3ncc(F)c(NC4CC(C)(C)N(C)C(C)(C)C4)n3)cc2-n2nnnc21 (stereo not drawn)
2. O=C1NC(=O)C(c2nn(C3CCNCC3)c3ccccc23)=C1c1c[nH]c2sccc12
3. N#Cc1cnc2sc(-c3ccccc3)cc2c1NCc1cccc2[nH]ccc12
4. CC(C)(C(=O)NC[C@@H](N)c1ccc(C(=O)Nc2ccncc2)cc1)c1ccc(Cl)cc1

> 6.60
6.30 to 7.00
< 4.52
> 7.30
